System: KM12 colon
ASSAY_SUMMARY: NCI-60 one-dose screen, 48 h
ASSAY_CONDITIONS: 10 µM unless noted
The panel holds about 83,000 compounds, 20% with a hit somewhere; the sample as a whole holds those more often. Calls of active or inactive are those of the source. Rule for the calls: active = growth percent below 10; inactive = the rest.
Select the matching outcome among t for active, f for inactive

Illustrative cases are given below, each with its answer.
Per the assay record, what outcome was assigned to COc1ccc2nc3cc(Cl)ccc3c(N3CCN(c4nccc(Nc5ccc(Cl)cc5)n4)CC3)c2c1 ?
f

Per the assay record, what outcome was assigned to COc1cccc(NC(=O)c2sc3nc4c(cc3c2N)CN(Cc2ccccc2)CC4)c1 ?
f

Per the assay record, what outcome was assigned to COc1cc(NCCCCN=C(N)N)c2ncccc2c1 ?
f

***
Per the assay record, what outcome was assigned to COc1cc2cc(COc3nccc(-c4ccc(Cl)cc4)n3)c(=O)[nH]c2cc1OC ?
f

Per the assay record, what outcome was assigned to COc1ccc(-c2cc(-c3ccc(N(C)C)cc3)nc(NC(=O)c3ccncc3)n2)cc1 ?
f

Per the assay record, what outcome was assigned to CCN(CC)Cc1cc(Nc2c3ccccc3nc3cc(Cl)ccc23)ccc1O ?
t

Per the assay record, what outcome was assigned to CCN(C(=O)CN1CCN(c2cc3c(cc2F)c(=O)c(C(=O)O)cn3C2CC2)CC1)c1nc(-c2ccc(OC)cc2)cs1 ?
f

Per the assay record, what outcome was assigned to CCc1ccccc1NC(=O)c1sc2nc3c(cc2c1N)C(=O)CCC3 ?
f

Per the assay record, what outcome was assigned to COc1ccc(S(=O)(=O)NCCCNc2cc(-c3c(-c4cccc(OC)c4)nc4sccn34)ccn2)cc1 ?
f

Per the assay record, what outcome was assigned to C#Cc1nc(Nc2cc(C)[nH]n2)c2ccccc2n1 ?
t

Every entry's value here was drawn from PubChem BioAssay (NCI).
